ASSAY SYSTEM: ERα (Homo sapiens, UniProt P03372)
Construct: host or cells: MCF7
Sequence (P03372 whole entry): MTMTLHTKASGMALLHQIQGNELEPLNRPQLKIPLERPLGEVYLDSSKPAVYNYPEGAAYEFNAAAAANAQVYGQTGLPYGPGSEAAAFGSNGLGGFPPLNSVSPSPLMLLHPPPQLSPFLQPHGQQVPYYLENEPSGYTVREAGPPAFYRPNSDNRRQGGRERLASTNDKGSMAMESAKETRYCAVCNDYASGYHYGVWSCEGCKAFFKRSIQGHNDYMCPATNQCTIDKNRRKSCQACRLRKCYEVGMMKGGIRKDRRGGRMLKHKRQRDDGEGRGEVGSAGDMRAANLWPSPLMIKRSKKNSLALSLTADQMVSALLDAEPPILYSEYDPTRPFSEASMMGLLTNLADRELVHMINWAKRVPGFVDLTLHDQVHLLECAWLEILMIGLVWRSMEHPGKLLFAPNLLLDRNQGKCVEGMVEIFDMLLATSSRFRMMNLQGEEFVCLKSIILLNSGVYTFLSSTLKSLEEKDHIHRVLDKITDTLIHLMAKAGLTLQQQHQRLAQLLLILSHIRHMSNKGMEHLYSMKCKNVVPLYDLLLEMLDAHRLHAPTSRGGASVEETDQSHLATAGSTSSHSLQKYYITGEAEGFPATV
EXPERIMENT: Estrogen receptor degradation activity: breast cancer cell ERα in cell western assay (MCF7 cells)
Type: cell-based
SETUP CONDITIONS: 0.3 μM, 4 hours, relative to fulvestrant 0.1 μM positive control
QUANTITY NAME: % Degradation At 0.3 μM (%)
Dear colleague, please return just the value in %, with no unit written.

stdin: Given the entry Cc1c(Cl)ccc(C2=C(c3ccc(C=C4CN(CCCF)C4)cc3)c3ccc(C(=O)O)cc3CCC2)c1C , report its measured % Degradation At 0.3 μM.
stdout: 90

stdin: What about CC1(C)CCCC(C2=C(c3ncc(C=C4CN(CCCF)C4)cc3F)c3ccc(C(=O)O)cc3CCC2)C1 (racemic) ?
stdout: 92

stdin: What about COc1nccc(C2=C(c3ccc(C=C4CN(CCCF)C4)cc3)c3ccc(C(=O)O)cc3CCC2)c1F ?
stdout: 92

stdin: What about O=C(O)c1ccc2c(c1)CCCC(c1ccc(C(F)(F)F)cc1F)=C2c1ccc(C=C2CN(CCCF)C2)cc1 ?
stdout: 98

stdin: What about O=C(O)c1ccc2c(c1)CCCC(c1cc(F)ccc1C(F)(F)F)=C2c1ccc(C=C2CN(CCCF)C2)cc1 ?
stdout: 92

stdin: What about Cc1c(C2=C(c3ccc(C=C4CN(CCCF)C4)cc3)c3ccc(C(=O)O)cc3CCC2)ccc(Cl)c1F ?
stdout: 98

stdin: What about Cl.O=C(O)c1ccc2c(c1)CCCC(c1ccc(Cl)cc1Cl)=C2c1ccc(C=C2CN(CCCF)C2)c(F)c1F ?
stdout: 98

stdin: What about Cc1cc(C2=C(c3ccc(F)cc3C)CCCc3cc(C(=O)O)ccc32)c(C)cc1C=C1CN(CCCF)C1 ?
stdout: 89

stdin: What about Cc1cc(F)ccc1C1=C(c2ccc(C=C3CN(CCCF)C3)cc2)c2ccc(C(=O)O)cc2CCC1 ?
stdout: 96

stdin: What about O=C(O)c1ccc2c(c1)CCCC(c1c(F)ccc3c1CCC3)=C2c1ccc(C=C2CN(CCC(F)F)C2)cc1 ?
stdout: 93

stdin: What about Cc1cccc(C2=C(c3ccc(C=C4CN(CCC(F)F)C4)cc3)c3ccc(C(=O)O)cc3CCC2)c1Cl ?
stdout: 95

stdin: What about O=C(O)c1ccc2c(c1)CCCC(c1cccc(C(F)(F)F)c1F)=C2c1ccc(C=C2CN(CCCF)C2)cc1 ?
stdout: 93

stdin: What about O=C(O)c1ccc2c(c1)CCCC(c1ccc(F)c(C(F)(F)F)c1)=C2c1ccc(C=C2CN(CCCF)C2)cc1 ?
stdout: 92

stdin: What about Cc1c(Cl)cccc1C1=C(c2ccc(C=C3CN(CCC(F)F)C3)cc2)c2ccc(C(=O)O)cc2CCC1 ?
stdout: 93

stdin: What about Cc1cc(C2CC2)ccc1C1=C(c2ccc(C=C3CN(CCCF)C3)cc2)c2ccc(C(=O)O)cc2CCC1 ?
stdout: 87

stdin: What about Cc1cc(C=C2CN(CCCF)C2)ccc1C1=C(c2ccc(Cl)cc2Cl)CCCc2cc(C(=O)O)ccc21.Cl ?
stdout: 97

stdin: What about O=C(O)c1ccc2c(c1)CCCC(c1ccc(F)cc1F)=C2c1ccc(C=C2CN(CCCF)C2)cc1 ?
stdout: 93

stdin: What about O=C(O)c1ccc2c(c1)CCCC([C@H]1C[C@@H]1c1ccccc1)=C2c1ccc(C=C2CN(CCCF)C2)cc1 (racemic) ?
stdout: 90

stdin: What about [2H]C([2H])(CCF)N1CC(=Cc2ccc(C3=C(c4ccc(Cl)cc4Cl)CCCc4cc(C(=O)O)ccc43)cc2)C1 ?
stdout: 94

stdin: What about Cc1c(Cl)cccc1C1=C(c2ccc(C=C3CN(CCCF)C3)cc2)c2ccc(C(=O)O)cc2CCC1 ?
stdout: 97

stdin: What about Cc1cccc(C2=C(c3ccc(C=C4CN(CCC(F)(F)F)C4)cc3)c3ccc(C(=O)O)cc3CCC2)c1C(F)(F)F ?
stdout: 93
